- test_details: Volume of distribution at steady state in rat at 1 mg/kg, iv
- Format: ADME, organism-based
- Set-up: dose 1 mg/kg, route intravenous
- condition_context: in vivo, read-out: Vdss
assay_metric: Vd
Give me the value, and tack the unit on after it.

query: Please look up its Vd: Cc1c(CC(=O)O)c(-c2ccccc2)nn1Cc1ccccc1S(=O)(=O)c1ccccc1
result: 1.6 L/kg

* * *

- test_details: Plasma protein binding in human by rapid equilibrium dialysis method
- Format: ADME, cell-free
- condition_context: read-out: PPB
assay_metric: fraction unbound

query: Please look up its fraction unbound: Cc1c(CC(=O)O)c(-c2ccccc2)nn1Cc1ccccc1S(=O)(=O)c1ccccc1
result: < 0.001
